- systemName: NLRP3 (Homo sapiens (Human), UniProt Q96P20)
- Sequence (Q96P20 whole entry): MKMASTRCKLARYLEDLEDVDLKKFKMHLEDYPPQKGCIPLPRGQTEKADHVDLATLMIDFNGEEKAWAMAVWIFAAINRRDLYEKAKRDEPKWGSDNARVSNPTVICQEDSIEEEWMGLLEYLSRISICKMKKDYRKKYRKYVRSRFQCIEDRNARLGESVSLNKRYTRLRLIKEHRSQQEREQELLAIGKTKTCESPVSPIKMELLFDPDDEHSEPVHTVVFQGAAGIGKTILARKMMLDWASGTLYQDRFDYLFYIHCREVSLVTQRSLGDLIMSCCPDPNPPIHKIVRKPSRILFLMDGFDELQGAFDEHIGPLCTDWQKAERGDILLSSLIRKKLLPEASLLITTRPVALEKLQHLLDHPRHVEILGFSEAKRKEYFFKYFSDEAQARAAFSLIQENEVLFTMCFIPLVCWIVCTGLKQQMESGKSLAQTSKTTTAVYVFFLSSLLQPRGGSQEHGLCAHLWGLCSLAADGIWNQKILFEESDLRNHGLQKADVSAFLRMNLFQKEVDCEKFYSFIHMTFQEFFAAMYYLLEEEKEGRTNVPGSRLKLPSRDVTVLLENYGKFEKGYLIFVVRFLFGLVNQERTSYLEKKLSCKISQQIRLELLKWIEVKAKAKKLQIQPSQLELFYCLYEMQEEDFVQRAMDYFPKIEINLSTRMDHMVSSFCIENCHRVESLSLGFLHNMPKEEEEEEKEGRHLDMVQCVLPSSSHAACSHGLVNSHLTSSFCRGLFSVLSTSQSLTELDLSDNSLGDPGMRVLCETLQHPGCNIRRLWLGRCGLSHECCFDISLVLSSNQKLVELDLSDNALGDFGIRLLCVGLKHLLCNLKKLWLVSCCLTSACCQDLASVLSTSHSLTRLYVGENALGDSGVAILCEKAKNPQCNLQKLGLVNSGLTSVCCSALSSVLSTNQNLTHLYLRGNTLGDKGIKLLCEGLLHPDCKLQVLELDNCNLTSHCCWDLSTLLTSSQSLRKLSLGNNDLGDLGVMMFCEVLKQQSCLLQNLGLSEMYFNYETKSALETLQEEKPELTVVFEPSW
- measurementNotes: THP-1 cells pyroptosis assay (LPS + nigericin, resazurin read-out)
- Format: cell-based
- measurementParameters: 1 μg/ml LPS, 5 μM nigericin
- Protocol: THP-1 cells (ATCC #TIB-202) were grown in RPMI containing L-glutamine (Gibco 15 #11835) supplemented with 1 mM sodium pyruvate (Sigma #S8636) and penicillin (100 units/ml)/streptomycin (0.1 mg/ml) (Sigma #P4333) in 10% Fetal Bovine Serum (FBS) (Sigma #F0804). […] The cells were then counted and viability (>90%) checked by Trypan blue (Sigma #T8154). […] The following method step-by-step assay was followed for compound screening. • 1. […] Plates were read in an Envision reader at Ex 560 nm and Em 590 nm • 9. […]
Where a name gives a salt, the structure may show the parent alone.

compound	IC50
C#CCCC1(CCN2CC(S(=O)(=O)NC(=O)Nc3c4c(cc5c3CCC5)CCC4)C2)N=N1 [Example 111, potassium salt]	1000 to 10000 nM
CN1CCC(S(=O)(=O)NC(=O)Nc2c3c(cc4c2CCC4)CCC3)C1 (stereo not drawn) [Example 36, potassium salt]	1000 to 10000 nM
O=C(Nc1c2c(cc3c1CCC3)CCC2)NS(=O)(=O)C1CN(CCCCO)C1 [Example 138, potassium salt]	< 1000 nM
O=C(Nc1c2c(cc3c1CCC3)CCC2)NS(=O)(=O)C1CN(C2CCOC2)C1 (stereo not drawn) [Example 121, potassium salt]	< 1000 nM
CCN1CCC(S(=O)(=O)NC(=O)Nc2c(-c3ccnc(C#N)c3)ccc3c2CCC3)CC1 [Example 190, potassium salt]	1000 to 10000 nM
CCN1CC(N2CCC(S(=O)(=O)NC(=O)Nc3c4c(cc5c3CCC5)CCC4)CC2)C1 [Example 24, potassium salt]	< 1000 nM
O=C(Nc1c2c(cc3c1CCC3)CCC2)NS(=O)(=O)C1CN(C2COC2)C1 [Example 116, potassium salt]	1000 to 10000 nM
COc1cc(-c2ccc3c(c2NC(=O)NS(=O)(=O)c2ccc(=O)n(C(C)C)c2)CCC3)ccn1	< 1000 nM
COc1cc(-c2cc(F)cc(C(C)C)c2NC(=O)NS(=O)(=O)C2CN(C(C)C)C2)ccn1	< 1000 nM
O=C(Nc1c2c(cc3c1CCC3)CCC2)NS(=O)(=O)C1CN(Cc2ccncc2)C1 [Example 103, potassium salt]	< 1000 nM
Cn1cc(CN2CC(S(=O)(=O)NC(=O)Nc3c4c(cc5c3CCC5)CCC4)C2)ccc1=O [Example 140, potassium salt]	< 1000 nM
CN(C)C(=O)N1CCC(S(=O)(=O)NC(=O)Nc2c3c(cc4c2CCC4)CCC3)C1 (stereo not drawn)	1000 to 10000 nM
COc1cc(-c2ccc3c(c2NC(=O)NS(=O)(=O)C2CN(C4CCC4)C2)CCC3)ccn1	< 1000 nM
O=C(Nc1c2c(cc3c1CCC3)CCC2)NS(=O)(=O)C1CN(CC2CCCO2)C1 (stereo not drawn) [Example 145, potassium salt]	< 1000 nM
CN1CC2(CC(S(=O)(=O)NC(=O)Nc3c4c(cc5c3CCC5)CCC4)C2)C1 [Example 64, potassium salt]	1000 to 10000 nM
